Assay: chemical genetic growth profiling, strain panel (AID 1159580);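 further: tested at 20 µM; growth read once vehicle control cultures reached saturation at 30 °C; 1 = growth at the plate median or of vehicle wells; lower values mean less growth of the strain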
Conditions: S. cerevisiae deletion strains, growth OD, locus YGL078C, strain dbp3, active compounds read low
Screen size: about 5,500 compounds; about 2,000 (36%) were called active. About 18% were inconclusive and are not listed. The list shows a part of the results.
Examples of compounds with documented normalized growth follow.
OBSERVATION TYPE: normalized growth

INSERT INTO results (compound, obs_value) VALUES
  ('C=C[C@H]1CN2CC[C@H]1C[C@@H]2[C@H](O)c1ccnc2ccccc12', 1.01),
  ('C=C1C2=CC(=O)O[C@@H](c3ccoc3)[C@]2(C)CCC1[C@@]1(C)C=CC(=O)C(C)(C)[C@@H]1CC(=O)OC (stereo partly drawn)', 0.999),
  ('OC1=Cc2c(O)cc(O)cc2OC1(O)c1ccc(O)c(O)c1 (stereo not drawn)', 0.972);

* * *

Assay: chemical genetic growth profiling, strain panel (AID 1159580);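 further: tested at 20 µM; growth read once vehicle control cultures reached saturation at 30 °C; 1 = growth at the plate median or of vehicle wells; lower values mean less growth of the strain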
Settings: S. cerevisiae deletion strains, growth OD, locus YOR061W, strain CKA2, active compounds read low
The whole screen tested about 5,500 compounds, of which about 2,000 (36%) were called active. Another 18% or so got no clear call; they are omitted. Some of the results follow.
# normalized growth per entry
OBSERVATION TYPE: normalized growth

INSERT INTO results (compound, obs_value) VALUES
  ('CN1CC(CNC(=O)OCc2ccccc2)CC2c3cccc4c3c(cn4C)CC21 (stereo not drawn)', 0.994),
  ('CC(CCC(=O)O)[C@H]1CCC2C3C[C@H](O)[C@@H]4C[C@H](O)CC[C@]4(C)C3CC[C@@]21C (stereo partly drawn)', 1.02),
  ('CCCCCC1C(=O)CCC1CC(=O)OC (stereo not drawn)', 0.99);

* * *

Listed below: normalized growth values for each entry.
Experiment: chemical genetic growth profiling, strain panel (AID 1159580);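 further: tested at 20 µM; growth read once vehicle control cultures reached saturation at 30 °C; 1 = growth at the plate median or of vehicle wells; lower values mean less growth of the strain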
Settings: S. cerevisiae deletion strains, growth OD, locus YHR079C, strain IRE1 (second series), active compounds read low
The whole screen tested about 5,500 compounds, of which about 2,000 (36%) were called active. Roughly 18% stayed inconclusive and do not appear here. The list shows a part of the results.
OBSERVATION TYPE: normalized growth

INSERT INTO results (compound, observation_type, obs_value) VALUES
  ('COc1cc2c(cc1/C=C/C(=O)c1cc(OC)c(OC)cc1OC)OCO2', 'normalized growth', 1),
  ('O=c1cc(-c2ccccc2)oc2c(O)c(O)ccc12', 'normalized growth', 0.988),
  ('Cc1cc(O)c(C=O)c2c1C(=O)Oc1c(COC(=O)/C=C/C(=O)O)c(O)c(C(=O)O)c(C)c1O2', 'normalized growth', 0.994),
  ('CC(CN(C)C)CN1c2ccccc2Sc2ccccc21 (stereo not given)', 'normalized growth', 0.985),
  ('CCC(=O)c1ccc2c(c1)N(CC(C)N(C)C)c1ccccc1S2 (stereo not given)', 'normalized growth', 1.01),
  ('Cc1cccc(Nc2ccncc2S(=O)(=O)NC(=O)NC(C)C)c1', 'normalized growth', 1.01),
  ('Nc1ccn(C2O[C@H](CO)[C@@H](O)[C@H]2O)c(=O)n1 (stereo not given in full)', 'normalized growth', 1),
  ('NC(N)=O', 'normalized growth', 0.991),
  ('COc1cc(C(=O)O)c2c(c1C)OC(=O)c1c(C)cc(O)c(C=O)c1O2', 'normalized growth', 0.988),
  ('Cc1cc(O)c(C=O)c2c1C(=O)Oc1c(C)c(O)c3c(c1O2)C(O)OC3=O (stereo not given)', 'normalized growth', 0.97);
